Entries with reported pIC50 on UniProtKB P23975
Sequence (P23975 whole entry): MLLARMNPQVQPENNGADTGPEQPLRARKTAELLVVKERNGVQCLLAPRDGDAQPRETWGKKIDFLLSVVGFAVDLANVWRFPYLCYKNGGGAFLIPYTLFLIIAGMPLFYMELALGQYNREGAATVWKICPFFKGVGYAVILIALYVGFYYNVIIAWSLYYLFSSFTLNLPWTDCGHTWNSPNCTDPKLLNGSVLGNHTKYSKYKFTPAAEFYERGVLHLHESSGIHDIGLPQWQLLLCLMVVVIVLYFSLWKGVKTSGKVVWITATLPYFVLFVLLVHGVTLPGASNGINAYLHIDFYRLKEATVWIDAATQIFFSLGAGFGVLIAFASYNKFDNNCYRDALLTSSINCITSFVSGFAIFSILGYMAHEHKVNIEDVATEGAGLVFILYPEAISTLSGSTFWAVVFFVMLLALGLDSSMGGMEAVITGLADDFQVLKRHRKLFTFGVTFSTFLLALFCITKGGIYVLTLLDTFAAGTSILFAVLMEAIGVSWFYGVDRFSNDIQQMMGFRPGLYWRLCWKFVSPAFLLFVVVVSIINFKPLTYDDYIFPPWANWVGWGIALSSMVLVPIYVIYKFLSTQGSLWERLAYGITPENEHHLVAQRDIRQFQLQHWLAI
pIC50: −log10 of the molar value.

smiles_str: CCN(CC)CCCCn1c2ccccc2c(=O)c2ccccc21
pIC50: < 5.00
--
smiles_str: CCN(CC)CCn1c2ccccc2c(=O)c2ccccc21
pIC50: < 5.00
--
smiles_str: CCN(CC)CCCn1c2ccccc2c(=O)c2ccccc21
pIC50: < 5.00
--
smiles_str: CCN(CC)CCCCCCn1c2ccccc2c(=O)c2ccccc21
pIC50: < 5.00
--
smiles_str: CCN(CC)CCCCCn1c2ccccc2c(=O)c2ccccc21
pIC50: 5.04

----------
- System: Plasmodium falciparum
- protocol_summary: Antimalarial activity after 72 hrs against chloroquine-resistant transporter 106/1'76N mutant Plasmodium falciparum infected human erythrocytes by SYBR green assay
- Type: functional, organism-based

smiles_str: CCN(CC)CCCCCCn1c2ccccc2c(=O)c2ccccc21
IC50 (nM): 596

----------
- target_entity: Histamine H1 receptor (Homo sapiens)
- Sequence (P35367 whole entry): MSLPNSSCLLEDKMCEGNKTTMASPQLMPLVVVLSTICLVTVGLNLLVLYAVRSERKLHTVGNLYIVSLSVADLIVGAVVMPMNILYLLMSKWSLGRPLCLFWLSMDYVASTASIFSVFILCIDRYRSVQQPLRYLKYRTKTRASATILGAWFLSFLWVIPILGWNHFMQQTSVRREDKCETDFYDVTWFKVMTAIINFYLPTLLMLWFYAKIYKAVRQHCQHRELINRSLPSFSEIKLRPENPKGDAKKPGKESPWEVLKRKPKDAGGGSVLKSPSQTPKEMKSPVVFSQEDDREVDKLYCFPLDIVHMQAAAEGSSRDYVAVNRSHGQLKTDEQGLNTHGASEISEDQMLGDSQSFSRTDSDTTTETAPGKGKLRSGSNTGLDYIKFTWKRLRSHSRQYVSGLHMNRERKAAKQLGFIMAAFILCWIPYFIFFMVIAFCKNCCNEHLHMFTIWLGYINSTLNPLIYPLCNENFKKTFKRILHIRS
- protocol_summary: biochemical
- Type: cell-based, CHO
- Description: Displacement of [3H]pyrilamine from human histamine receptor subtype 1 expressed in CHO cells
metric_name: IC50 (µM)

smiles_str: CCN(CC)CCCCCCn1c2ccccc2c(=O)c2ccccc21
target_entity: Histamine H1 receptor (Homo sapiens)
metric_name: IC50
endpoint_value: 3.6

----------
- Test system: Plasmodium falciparum
- protocol_summary: microbe, parasite or virus in culture
- assay_setup: D6, 72 h
Here, each record is paired with measured IC50 data.

compound: O=c1c2ccccc2n(CCCCCCCl)c2ccccc12
target_entity: Plasmodium falciparum
IC50 [µM]: 1.3
--
compound: CCN(CC)CCCCCn1c2ccccc2c(=O)c2ccccc21
target_entity: Plasmodium falciparum
IC50 [µM]: 3.7
--
compound: CCN(CC)CCCCCCn1c2ccccc2c(=O)c2ccccc21
target_entity: Plasmodium falciparum
IC50 [µM]: 3.2
--
compound: CCN(CC)CCCCCCCCn1c2ccccc2c(=O)c2ccccc21
target_entity: Plasmodium falciparum
IC50 [µM]: 2.6
--
compound: CCNCCCC(C)Nc1ccnc2cc(Cl)ccc12 (centres undefined)
target_entity: Plasmodium falciparum
IC50 [µM]: 0.0182
--
compound: CCN(CC)CCn1c2ccccc2c(=O)c2ccccc21
target_entity: Plasmodium falciparum
IC50 [µM]: 11.8
--
compound: CCN(CC)CCCn1c2ccccc2c(=O)c2ccccc21
target_entity: Plasmodium falciparum
IC50 [µM]: 8.1
--
compound: CN(C)CCC(c1ccc(Cl)cc1)c1ccccn1 (centres undefined)
target_entity: Plasmodium falciparum
IC50 [µM]: 61.2
--
compound: CCN(CC)CCCCn1c2ccccc2c(=O)c2ccccc21
target_entity: Plasmodium falciparum
IC50 [µM]: 7.6

----------
List of IC50 tested on Sodium-dependent serotonin transporter (Homo sapiens, UniProt P31645).
Sequence (P31645 whole entry): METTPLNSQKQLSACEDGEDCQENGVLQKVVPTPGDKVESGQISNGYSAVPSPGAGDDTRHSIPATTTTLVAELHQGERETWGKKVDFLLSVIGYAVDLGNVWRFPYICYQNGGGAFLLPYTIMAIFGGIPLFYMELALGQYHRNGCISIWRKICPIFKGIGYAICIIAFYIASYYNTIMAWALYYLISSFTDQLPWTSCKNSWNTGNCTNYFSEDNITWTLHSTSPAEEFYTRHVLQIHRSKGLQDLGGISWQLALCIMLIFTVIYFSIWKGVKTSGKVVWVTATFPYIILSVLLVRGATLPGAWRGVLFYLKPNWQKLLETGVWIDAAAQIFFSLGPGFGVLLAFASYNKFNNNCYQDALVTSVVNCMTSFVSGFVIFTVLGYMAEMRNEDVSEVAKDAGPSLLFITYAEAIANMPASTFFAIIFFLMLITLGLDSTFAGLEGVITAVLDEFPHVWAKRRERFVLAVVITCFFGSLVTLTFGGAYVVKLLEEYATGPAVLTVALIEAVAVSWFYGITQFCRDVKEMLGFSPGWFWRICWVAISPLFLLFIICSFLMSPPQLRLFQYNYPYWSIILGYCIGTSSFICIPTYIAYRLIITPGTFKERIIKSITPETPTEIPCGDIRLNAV

smiles_str: CCN(CC)CCCCn1c2ccccc2c(=O)c2ccccc21
IC50: > 10 µM
//
smiles_str: CCN(CC)CCCCCCn1c2ccccc2c(=O)c2ccccc21
IC50: 3.5 µM
//
smiles_str: CCN(CC)CCn1c2ccccc2c(=O)c2ccccc21
IC50: > 10 µM
//
smiles_str: CCN(CC)CCCn1c2ccccc2c(=O)c2ccccc21
IC50: > 10 µM
//
smiles_str: CCN(CC)CCCCCn1c2ccccc2c(=O)c2ccccc21
IC50: 7.8 µM
